Quantity kind: melting point

Would you mind telling me what melting point value was observed for O=c1n(CC2CO2)c(=O)n(CC2CO2)n1CC1CO1 (stereo unspecified) ? 93 to 94 °C

Could you tell me which melting point is on file for COc1cc2cc(/C=N\O)sc2cc1OC ? 211 to 215 °C

Fill blank: measured melting point of the compound CCOC(=O)C1=C(C)N=C(NC)N(C(=O)OCC)C1c1cccc([N+](=O)[O-])c1 (stereo unspecified) is ____. 112 to 114 °C

Can you share its melting point? I mean this compound: COc1ccc(C(C#N)Cc2c(Cl)cncc2Cl)c2c1OC(C)(C)C2 (stereo unspecified) 158 to 162 °C

Value lookup for melting point; key = Nc1ccc(CCC(=O)Nc2ccc(C(=O)c3ccccc3)cc2)cc1[N+](=O)[O-] 72 to 73 °C

Fill in the blank: the reported melting point of CCOC(=O)[C@@H]([C@H](N)C(=O)O)[C@@H](C)O is ____. 150 to 151 °C

Every entry's value here was drawn from a melting point compilation (Tetko et al.; mined from patent text by program, amines drawn as free bases though some values may be those of a salt).
